Target: furin, P09958;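 note: purified furin at 1:10 enzyme:substrate in 50 mM HEPES pH 7.5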
Sequence (P09958 whole entry): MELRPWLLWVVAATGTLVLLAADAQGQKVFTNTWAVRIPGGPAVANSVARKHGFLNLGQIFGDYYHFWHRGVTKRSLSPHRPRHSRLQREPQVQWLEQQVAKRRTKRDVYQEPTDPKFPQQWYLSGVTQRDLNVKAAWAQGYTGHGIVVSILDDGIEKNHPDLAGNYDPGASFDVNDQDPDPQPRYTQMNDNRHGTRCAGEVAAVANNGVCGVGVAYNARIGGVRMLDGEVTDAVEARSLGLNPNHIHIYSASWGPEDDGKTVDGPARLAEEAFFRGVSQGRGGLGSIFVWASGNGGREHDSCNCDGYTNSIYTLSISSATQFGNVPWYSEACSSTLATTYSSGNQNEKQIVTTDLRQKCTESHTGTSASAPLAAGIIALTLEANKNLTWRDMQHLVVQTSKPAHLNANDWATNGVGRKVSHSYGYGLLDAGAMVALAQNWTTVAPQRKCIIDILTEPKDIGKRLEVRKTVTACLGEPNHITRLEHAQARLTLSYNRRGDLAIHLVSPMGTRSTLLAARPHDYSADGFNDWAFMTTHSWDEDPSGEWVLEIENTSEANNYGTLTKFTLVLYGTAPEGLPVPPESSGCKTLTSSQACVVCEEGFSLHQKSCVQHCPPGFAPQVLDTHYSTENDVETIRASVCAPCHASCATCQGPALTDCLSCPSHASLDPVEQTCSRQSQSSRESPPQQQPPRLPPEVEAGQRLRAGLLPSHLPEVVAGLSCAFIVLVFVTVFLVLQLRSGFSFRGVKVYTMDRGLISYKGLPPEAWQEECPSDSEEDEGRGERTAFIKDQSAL
Assay: furin cleavage Z-score vs untreated control; higher = more cleavage, active = 3.5 or more, inactive = 1 or less, 8 variable residues between constant flanks
Conditions: 15 min
The other results are listed elsewhere or left out. The true hit rate is not given.
observable: furin cleavage Z-score
Numbers only.

Worked examples follow.
CASRIRIERVAGNASASA [FS-1087] ... 3.11
CAQVVTSTWVAGNASASA [HC2162] ... 0.0342
CAQAETAGARAGNASASA [HC828] ... 0.716

Now look at this entry.
Ask | Could you share which furin cleavage Z-score value was measured for CAVVCYSMSYAGNASASA [HC97] ?
Reply | -0.359
